Test system: Fusarium oxysporum
Assay: Fungistatic activity against Fusarium oxysporum AM 13 assessed as effect on diameter of fungal growth zone
Assay type: functional, organism-based
Settings: Fusarium oxysporum, AM 13; read-out: IC50
Could you mark each record met if its IC50 falls strictly under 200 µg/mL, and not met if it equals or exceeds it?

{"molecule": "O=C1OC[C@@H]2C[C@@H]3O[C@@H]3C[C@H]12", "assigned class": "met"}
{"molecule": "O=C1OC[C@@H]2CCCC[C@H]12", "assigned class": "not met"}

Please determine if CCCCCCCCCC[N+](C)(C)CCCCCCCCCC.[Cl-] [DIDECYLDIMETHYLAMMONIUM CHLORIDE] is below 200 µg/mL in terms of IC50.
met

Please determine if O=C1OC[C@H]2CCC[C@H](Br)[C@@H]12 (racemic) is below 200 µg/mL in terms of IC50.
met

Please determine if O=C1OC[C@H]2CCCC[C@@H]12 (racemic) is below 200 µg/mL in terms of IC50.
not met

Please determine if O=C1OC[C@@H]2CC=CC[C@H]12 is below 200 µg/mL in terms of IC50.
not met

Please determine if O=C1OC[C@H]2C[C@@H](Br)[C@H](Br)C[C@@H]12 (racemic) is below 200 µg/mL in terms of IC50.
met

Please determine if CC1(C)OC(=O)[C@H]2C[C@@H](Br)[C@H](Br)C[C@H]21 (racemic) is below 200 µg/mL in terms of IC50.
met

----------
# maps each entry to its IC50
System: Fusarium culmorum
Assay: Fungistatic activity against Fusarium culmorum AM 282 assessed as effect on diameter of fungal growth zone
Format: functional, organism-based
Conditions: Fusarium culmorum, AM 282; read-out: IC50
Write down the numeric answer in µg/mL and omit the unit.

{"compound": "O=C1OC[C@@H]2C[C@@H]3O[C@@H]3C[C@H]12", "IC50 / µg/mL": 59.7}
{"compound": "O=C1OC[C@@H]2C[C@@H](Br)[C@H](Br)C[C@H]12", "IC50 / µg/mL": 90.5}
{"compound": "O=C1OC[C@H]2CCCC[C@@H]12 (racemic)", "IC50 / µg/mL": 147}
{"compound": "O=C1OCC2CCC(O)CC12 (racemic)", "IC50 / µg/mL": 121}
{"compound": "O=C1OC[C@H]2C[C@@H](Br)[C@H](Br)C[C@@H]12 (racemic)", "IC50 / µg/mL": 81.5}

Lab note: CC1(C)OC(=O)[C@@H]2CCCC[C@@H]21 gave IC50 of 121

Lab note: O=C1OC[C@H]2CC=CC[C@@H]12 (racemic) gave IC50 of 184

----------
Test system: Fusarium culmorum
Assay: Fungistatic activity against Fusarium culmorum AM 282 assessed as effect on diameter of fungal growth zone
Type: functional, organism-based
Settings: Fusarium culmorum, AM 282; read-out: IC50
attribute measured: IC50 (µg/mL)
Write down the numeric answer in µg/mL and omit the unit.

{"compound": "O=C1OC[C@H]2CCC[C@H](Br)[C@@H]12 (racemic)", "IC50, µg/mL": 133}

Lab note: O=C1OC[C@H]2C[C@H]3O[C@H]3C[C@@H]12 (racemic) gave IC50 of 90.4

Lab note: CC1(C)OC(=O)[C@H]2CC=CC[C@H]21 (racemic) gave IC50 of 183
